Source listed as the RNAGym collection of RNA variant scans (doi:10.7554/elife.80360).

B1: Hairpin Ribozyme (parent)
chain: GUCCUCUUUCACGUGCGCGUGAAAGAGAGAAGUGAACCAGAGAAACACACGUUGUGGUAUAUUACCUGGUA

Variants of: B1
Experiment: self-cleavage, relative activity (ratio to wild type); higher = more cleavage; co-transcriptional
MEASUREMENT_LABEL: self-cleavage
Keep the answer to the number alone.

Worked set:
A11G C38A    0.213
C18G A44C    0.164
A35C C65A    1.08
U60A G68A    0.298
G13U C16G    0.655
U14A U63A    0.162
C50G U52A    0.216
G13U U58A    0.808

Sure, the documented self-cleavage for A11G G13C is 0.567

Sure, the documented self-cleavage for G42C U53C is 0.491

Sure, the documented self-cleavage for U2C A43U is 0.177

Sure, the documented self-cleavage for "A49U" is 0.179
